target_desc: T1, ZIKV-VLP (Native Antigen Inc.) (Zika virus)
T1 construct: also called Zika VLP; ZVLP
method_description: BLI binning on ZIKV-VLP; 1st mAb: 260-2
metric: response of 2nd mAb
Give the figure only, with no unit attached.

anti-ZIKV antibody 289-3 (antibody, V domains shown, also called clone 289-3; subclone 289-3) VH: QEELEESGGDLVKPGASLTLTCKASGFSFSSGAYICWVRQAPGKGPEWIACIYTGDGRTYYANWAKRRFTISSSSSTTVALEMPSLTDADTATYFCARAIAVGAGYGVGNYFTLWGPGTLVTVSS VL: DIVMTQTPSSVSAAVGGTVTINCHASENIYGYLSWYQQKPGQPPKLLIYKASTLASGVPSRFKGSGAGTQFTLTITALECADAATYYCQSYYTSSSNADGSENAFGGGTEVVVEG
0.04

// returns reported response of 2nd mAb for input anti-ZIKV antibody 270-12 (antibody, V domains shown, also called clone 270-12) VH: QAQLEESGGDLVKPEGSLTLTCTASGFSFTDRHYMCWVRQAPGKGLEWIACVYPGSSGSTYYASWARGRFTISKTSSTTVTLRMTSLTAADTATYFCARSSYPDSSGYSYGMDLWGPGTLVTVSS VL: DIVMTQTPASVEAAVGGTVTIKCQASQDINSNLAWYQQKPGQRPKFLMYLTSKLASGVPSRFRGSGSGTQFTLTISDLECADAATYYCQTYYDISNYGYAFGGGTEVVVKG 0
